- experiment-description: in vivo
- stated-conditions: Sprague-Dawley, rat, po, 10 mg/kg
Each entry below lists one item and its recorded half-life value.
assay-readout: half-life

# molecule, assay-readout, measured
data = [
    ("CC(=O)N[C@H]1[C@H]([C@H](O)[C@H](O)CO)OC(C(=O)O)=C[C@@H]1NC(=N)N [ZANAMIVIR]", "half-life", "0.25 h"),
    ("CC(=O)N[C@H]1[C@H]([C@H](O)[C@H](O)CO)OC(C(=O)O)=C[C@@H]1NC(=O)NCc1ccco1", "half-life", "5.67 h"),
]

---

// reported bioavailability for each item listed
- experiment-description: in vivo
- stated-conditions: Sprague-Dawley, rat, po, 10 mg/kg

# compound, bioavailability, %
data = [
    ("CC(=O)N[C@H]1[C@H]([C@H](O)[C@H](O)CO)OC(C(=O)O)=C[C@@H]1NC(=N)N [ZANAMIVIR]", 2.7),
    ("CC(=O)N[C@H]1[C@H]([C@H](O)[C@H](O)CO)OC(C(=O)O)=C[C@@H]1NC(=O)NCc1ccco1", 2.73),
]
